Conditions: bacteroides thetaiotaomicron, 12 h, 2 µM
Description: The drug is tested on Bacteroides thetaiotaomicron strain: VPI-5482 for biotransformation. The drug concentrations were measured before and after a 12-h incubation by liquid-chromatography-coupled mass spectrometry (LC–MS)
Assay Readout: Bacterial Biotransformation

[[record]]
compound = "CN(C)C(=O)C(CCN1CCC(O)(c2ccc(Cl)cc2)CC1)(c1ccccc1)c1ccccc1 [LOPERAMIDE]"
reported_measurement = "Compound NOT metabolized"

[[record]]
compound = "OC(c1cc(C(F)(F)F)nc2c(C(F)(F)F)cccc12)C1CCCCN1 (configuration not stated)"
reported_measurement = "Compound NOT metabolized"

[[record]]
compound = "Clc1cccc(Cl)c1N=C1NCCN1"
reported_measurement = "Compound metabolized"

[[record]]
compound = "CCOC(=O)[C@H](CCc1ccccc1)N[C@@H](C)C(=O)N1Cc2ccccc2C[C@H]1C(=O)O"
reported_measurement = "Compound metabolized"

[[record]]
compound = "CC(N)C12CC3CC(CC(C3)C1)C2 (configuration not stated)"
reported_measurement = "Compound NOT metabolized"

[[record]]
compound = "N#Cc1ccc(C(c2ccc(C#N)cc2)n2cncn2)cc1"
reported_measurement = "Compound NOT metabolized"

[[record]]
compound = "C#C[C@]1(OC(C)=O)CC[C@H]2[C@@H]3CCC4=C/C(=N/O)CC[C@@H]4[C@H]3CC[C@@]21CC [NORGESTIMATE]"
reported_measurement = "Compound NOT metabolized"

[[record]]
compound = "COc1ccnc(C[S+]([O-])c2nc3ccc(OC(F)F)cc3[nH]2)c1OC (configuration not stated)"
reported_measurement = "Compound metabolized"

[[record]]
compound = "CN(CCOc1ccc(CC2SC(=O)NC2=O)cc1)c1ccccn1.O=C(O)/C=C\\C(=O)O (configuration not stated) [ROSIGLITAZONE MALEATE]"
reported_measurement = "Compound NOT metabolized"

[[record]]
compound = "COc1c(C)c2c(c(O)c1C/C=C(\\C)CCC(=O)OCCN1CCOCC1)C(=O)OC2 [MYCOPHENOLATE MOFETIL]"
reported_measurement = "Compound metabolized"

[[record]]
compound = "CN(C)CCOC(c1ccc(Cl)cc1)c1ccccn1.O=C(O)/C=C\\C(=O)O (configuration not stated) [CARBINOXAMINE MALEATE]"
reported_measurement = "Compound NOT metabolized"

[[record]]
compound = "O=C1CC2(CCCC2)CC(=O)N1CCCCN1CCN(c2ncccn2)CC1"
reported_measurement = "Compound NOT metabolized"

[[record]]
compound = "C[N+]12CCC(CC1)C(OC(=O)C(O)(c1ccccc1)c1ccccc1)C2.[Br-] (configuration not stated) [CLIDINIUM BROMIDE]"
reported_measurement = "Compound NOT metabolized"

[[record]]
compound = "COc1ccc2c3c1O[C@H]1C[C@@H](O)C=C[C@@]31CCN(C)C2"
reported_measurement = "Compound metabolized"

[[record]]
compound = "O=c1[nH]c2ccccc2n1CCCN1CCC(n2c(=O)[nH]c3cc(Cl)ccc32)CC1"
reported_measurement = "Compound NOT metabolized"

[[record]]
compound = "COC(=O)C(c1ccccc1)C1CCCCN1 (configuration not stated) [METHYLPHENIDATE]"
reported_measurement = "Compound NOT metabolized"

[[record]]
compound = "Br.CN(C)CCCC1(c2ccc(F)cc2)OCc2cc(C#N)ccc21 (configuration not stated) [CITALOPRAM HYDROBROMIDE]"
reported_measurement = "Compound NOT metabolized"

[[record]]
compound = "CC#C[C@]1(O)CC[C@H]2[C@@H]3CCC4=CC(=O)CCC4=C3[C@@H](c3ccc(N(C)C)cc3)C[C@@]21C"
reported_measurement = "Compound NOT metabolized"

[[record]]
compound = "COc1cc2nc(N3CCN(C(=O)C4COc5ccccc5O4)CC3)nc(N)c2cc1OC.CS(=O)(=O)O (configuration not stated) [DOXAZOSIN MESYLATE]"
reported_measurement = "Compound NOT metabolized"

[[record]]
compound = "Cc1ccc(NC(=O)c2ccc(CN3CCN(C)CC3)cc2)cc1Nc1nccc(-c2cccnc2)n1"
reported_measurement = "Compound NOT metabolized"

[[record]]
compound = "COCCc1ccc(OCC(O)CNC(C)C)cc1.COCCc1ccc(OCC(O)CNC(C)C)cc1.O=C(O)C(O)C(O)C(=O)O (configuration not stated) [METOPROLOL TARTRATE]"
reported_measurement = "Compound NOT metabolized"

[[record]]
compound = "Clc1ccc(Cn2c(CN3CCCC3)nc3ccccc32)cc1"
reported_measurement = "Compound NOT metabolized"

[[record]]
compound = "CN1CCOC(c2ccccc2)c2ccccc2C1 (configuration not stated)"
reported_measurement = "Compound NOT metabolized"

[[record]]
compound = "CC1OC(OC2C(O)CC(OC3C(O)CC(OC4CCC5(C)C(CCC6C5CCC5(C)C(C7=CC(=O)OC7)CCC65O)C4)OC3C)OC2C)CC(O)C1O (configuration not stated)"
reported_measurement = "Compound metabolized"

[[record]]
compound = "CC(C)NCC(O)COc1ccc(COCCOC(C)C)cc1.CC(C)NCC(O)COc1ccc(COCCOC(C)C)cc1.O=C(O)/C=C/C(=O)O (configuration not stated) [BISOPROLOL FUMARATE]"
reported_measurement = "Compound NOT metabolized"

[[record]]
compound = "CC(C)(C)NC[C@H](O)COc1ccccc1C1CCCC1.CC(C)(C)NC[C@H](O)COc1ccccc1C1CCCC1.O=S(=O)(O)O [PENBUTOLOL SULFATE]"
reported_measurement = "Compound NOT metabolized"

[[record]]
compound = "CN1CCC(=C2c3ccccc3CC(=O)c3sccc32)CC1.O=C(O)/C=C/C(=O)O [KETOTIFEN FUMARATE]"
reported_measurement = "Compound NOT metabolized"

[[record]]
compound = "CC(C)(C)N.CCC[C@H](N[C@@H](C)C(=O)N1[C@H](C(=O)O)C[C@@H]2CCCC[C@@H]21)C(=O)OCC"
reported_measurement = "Compound NOT metabolized"

[[record]]
compound = "CNCCC(Oc1ccc(C(F)(F)F)cc1)c1ccccc1 (configuration not stated)"
reported_measurement = "Compound metabolized"

[[record]]
compound = "CC(=O)CCCCn1c(=O)c2c(ncn2C)n(C)c1=O"
reported_measurement = "Compound NOT metabolized"

[[record]]
compound = "Fc1ccc([C@@H]2CCNC[C@H]2COc2ccc3c(c2)OCO3)cc1"
reported_measurement = "Compound NOT metabolized"

[[record]]
compound = "COc1ccc2c(c1)c(CC(=O)O)c(C)n2C(=O)c1ccc(Cl)cc1"
reported_measurement = "Compound metabolized"

